test system: MCF-7; assay: MTT cell viability assay, MCF-7; format: cell-based, human; settings: Homo sapiens, MCF7, 72 h; read-out: IC50 of exemestane, MCF-7 (Figure 2a)
recorded_metric: IC50 (µM)
Please reply with the bare figure in µM and do not write the unit itself.

Task: Param readout = IC50; param system = MCF-7; param query = C=C1C[C@@H]2[C@H](CC[C@]3(C)C(=O)CC[C@@H]23)[C@@]2(C)C=CC(=O)C=C12 [exemestane] ; response: value
Result: 42.6

====

compounds and their reported pIC50
target: HDAC2 (Homo sapiens); assay: Enzyme HDAC inhibition assay, HDAC2; settings: read-out: IC50 HDAC 2; IC50 ± SEM; three experiments in duplicates
Sequence (Q92769 whole entry): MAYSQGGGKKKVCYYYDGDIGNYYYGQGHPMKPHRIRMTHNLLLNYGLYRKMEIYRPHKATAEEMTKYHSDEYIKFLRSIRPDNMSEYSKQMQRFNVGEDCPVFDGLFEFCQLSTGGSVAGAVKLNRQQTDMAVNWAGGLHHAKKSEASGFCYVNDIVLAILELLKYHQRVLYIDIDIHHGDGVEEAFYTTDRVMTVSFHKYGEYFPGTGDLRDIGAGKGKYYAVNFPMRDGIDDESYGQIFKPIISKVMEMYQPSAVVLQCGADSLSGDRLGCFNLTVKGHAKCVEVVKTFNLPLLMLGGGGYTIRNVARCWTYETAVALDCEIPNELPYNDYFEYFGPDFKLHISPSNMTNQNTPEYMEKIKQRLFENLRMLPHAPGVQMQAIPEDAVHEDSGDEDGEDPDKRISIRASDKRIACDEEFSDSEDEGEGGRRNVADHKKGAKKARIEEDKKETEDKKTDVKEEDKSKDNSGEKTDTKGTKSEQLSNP
Value format note: pIC50 is -log10 of concentration (mol/L); just state the number.

# compound, measurement
data = [
    ("O=C(O)CCCC[C@@H]1CCSS1 [(R)-α-lipoic acid]", 3.68),
]

Task: Param readout = pIC50; param system = HDAC2 (Homo sapiens); param query = O=C(O)CCCCC1CCSS1 (racemic) [rac-α-lipoic acid] ; response: value
Result: 3.68

Task: Param readout = pIC50; param system = HDAC2 (Homo sapiens); param query = O=C(O)CCCC[C@H]1CCSS1 [(S)-α-lipoic acid] ; response: value
Result: 3.52

====

test system: class I/IIb HDAC activity in T47D cells; assay: cells; format: cell-based, human; settings: Homo sapiens, T47D, 48 h, read-out: IC50 Cellular HDAC Assay
recorded_metric: IC50 (nM)
Please reply with the bare figure in nM and do not write the unit itself.

Task: Param readout = IC50; param system = class I/IIb HDAC activity in T47D cells; param query = O=C(CCCCCCC(=O)Nc1ccccc1)NO [vorinostat] ; response: value
Result: 790

====

molecular target: HDAC6 (Homo sapiens); assay: Enzyme HDAC inhibition assay, HDAC6
Sequence (Q9UBN7 whole entry): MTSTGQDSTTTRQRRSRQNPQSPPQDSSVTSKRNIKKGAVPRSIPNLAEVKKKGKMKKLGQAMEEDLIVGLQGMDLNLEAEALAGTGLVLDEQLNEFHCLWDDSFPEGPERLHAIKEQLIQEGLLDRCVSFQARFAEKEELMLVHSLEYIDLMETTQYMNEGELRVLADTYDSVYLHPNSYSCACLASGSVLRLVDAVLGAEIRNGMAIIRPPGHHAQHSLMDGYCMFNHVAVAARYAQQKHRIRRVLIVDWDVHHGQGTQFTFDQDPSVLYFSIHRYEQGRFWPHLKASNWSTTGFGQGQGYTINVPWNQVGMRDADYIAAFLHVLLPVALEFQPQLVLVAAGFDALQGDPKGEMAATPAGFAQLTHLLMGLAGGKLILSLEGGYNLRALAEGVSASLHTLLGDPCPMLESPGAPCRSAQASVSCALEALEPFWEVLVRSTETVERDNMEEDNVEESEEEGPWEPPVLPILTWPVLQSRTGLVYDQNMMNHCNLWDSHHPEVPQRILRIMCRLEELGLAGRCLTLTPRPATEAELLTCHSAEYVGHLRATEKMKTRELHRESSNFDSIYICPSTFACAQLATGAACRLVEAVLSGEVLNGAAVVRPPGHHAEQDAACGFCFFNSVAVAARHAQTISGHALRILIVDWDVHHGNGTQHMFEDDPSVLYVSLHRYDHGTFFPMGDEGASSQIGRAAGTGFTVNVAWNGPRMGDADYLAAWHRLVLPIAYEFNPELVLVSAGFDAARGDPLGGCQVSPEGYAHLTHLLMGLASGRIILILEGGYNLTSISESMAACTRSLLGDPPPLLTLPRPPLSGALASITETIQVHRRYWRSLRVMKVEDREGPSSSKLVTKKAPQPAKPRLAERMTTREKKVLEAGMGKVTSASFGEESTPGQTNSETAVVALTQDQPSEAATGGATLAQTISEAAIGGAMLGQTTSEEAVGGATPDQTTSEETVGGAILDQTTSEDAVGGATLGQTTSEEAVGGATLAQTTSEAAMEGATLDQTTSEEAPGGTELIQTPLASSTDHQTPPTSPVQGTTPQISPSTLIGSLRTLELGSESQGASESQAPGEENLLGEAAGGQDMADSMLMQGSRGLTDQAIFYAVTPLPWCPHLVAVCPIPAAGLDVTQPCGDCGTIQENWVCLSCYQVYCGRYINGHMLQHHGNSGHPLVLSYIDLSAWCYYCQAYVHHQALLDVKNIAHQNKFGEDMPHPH
recorded_metric: IC50 (µM)
Please reply with the bare figure in µM and do not write the unit itself.

Task: Using the record for O=C(O)CCCCC(S)CCS (racemic) , report its IC50.
Result: 6.48

====

tested on: MCF-7; test: MTT cell viability assay, MCF-7; type: cell-based, human; conditions: Homo sapiens, MCF7; 120 h; IC50 ± SEM; read-out: IC50 MCF-7, 120 h MTT assay
recorded_metric: pIC50
Value format note: pIC50 is -log10 of concentration (mol/L); just state the number.

Task: Using the record for C=C1C[C@@H]2[C@H](CC[C@]3(C)C(=O)CC[C@@H]23)[C@@]2(C)C=CC(=O)C=C12 , report its pIC50.
Result: 4.79
